The measurements presented in this section are drawn from paper PMC10577085.

measurement name: Kd

input: API: value(readout= Kd, system= Cpl-1 (Streptococcus phage Cp1), query= `C[N+](C)(C)CCO` )
output: ~5 mM
